Source of measurements: patent US20150344485A1

# Target of assay: Lp-PLA2 in human plasma (Homo sapiens)
# Construct: from tissue; host or cells: pooled human plasma
# Sequence (Q13093 22-441): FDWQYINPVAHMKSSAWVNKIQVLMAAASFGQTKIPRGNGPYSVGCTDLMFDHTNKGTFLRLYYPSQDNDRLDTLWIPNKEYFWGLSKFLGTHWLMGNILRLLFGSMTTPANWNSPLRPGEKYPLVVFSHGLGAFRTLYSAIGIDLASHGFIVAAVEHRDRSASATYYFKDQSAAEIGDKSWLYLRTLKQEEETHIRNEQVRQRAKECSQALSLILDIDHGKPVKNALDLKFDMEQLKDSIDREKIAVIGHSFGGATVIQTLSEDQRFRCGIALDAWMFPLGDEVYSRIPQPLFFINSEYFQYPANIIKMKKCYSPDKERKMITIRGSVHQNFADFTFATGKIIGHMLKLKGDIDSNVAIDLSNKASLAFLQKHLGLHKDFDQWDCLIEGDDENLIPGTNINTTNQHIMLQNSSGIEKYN
# Experimental protocol: Lp-PLA2 human plasma assay (Thio-PAF assay)
# Format: biochemical
# Condition notes: pooled human plasma; read-out: pIC50 values in the thio-PAF assay (converted)
Give measured IC50 for each item. Keep answers brief.

What IC50 value was documented for this molecule, CN1c2cc(OCc3cccc(F)c3)nc(=O)n2CCC1(C)C ?
≤ 0.1 µM

Fill in: IC50 of [2H]C([2H])(Oc1cc2n(c(=O)n1)CCC(C)(C)N2C)c1cccc(F)c1F is ___
≤ 0.1 µM

Record request: IC50 value, item C[C@@H]1CCn2c(cc(OCc3ccc(Oc4cccc(F)c4)c(C#N)c3)nc2=O)N1C
≤ 0.01 µM

If you can, please state the reported IC50 value of CC1CCn2c(cc(OCc3cccc(F)c3)nc2=O)N1C (stereo not drawn) .
≤ 0.1 µM

What value of measured IC50 is listed for C[C@@H]1CCn2c(cc(OCc3cc(F)c(Oc4ccc(C(F)(F)F)nc4)c(F)c3)nc2=O)N1C ?
≤ 0.1 µM

Consider the molecule CN1c2cc(OCc3ccc(Oc4ccc(C(F)(F)F)nc4)c(C#N)c3)nc(=O)n2CCC1(C)C and give its measured IC50.
≤ 0.01 µM

For C[C@H]1CCn2c(cc(OCc3cc(F)c(Oc4ccc(F)c(F)c4)c(F)c3)nc2=O)N1C , what is its reported IC50?
≤ 0.01 µM

Please give the measured IC50 for this molecule: C[C@H]1CCn2c(cc(OCc3cc(F)c(Oc4ccc(Cl)c(F)c4)c(F)c3)nc2=O)N1C
≤ 0.01 µM

Entry under review: CN1c2cc(OCc3cc(F)c(F)c(F)c3)nc(=O)n2CCC1(C)C . Reported IC50?
≤ 0.1 µM
